This collection of values is drawn from ChEMBL document CHEMBL1201862.

System: BT-549
Assay: NCI tumour cell line growth inhibition, 48 h
Active and inactive are the calls of the source. No stated cut-off is given here; in the data, active = GI50 up to about 1.1 µM and inactive = higher.
Overview of reported GI50 across a group of compounds:

Input line: Return reported GI50; argument: CCOC1CN(C)/C(=N\c2cccc3ccccc23)S1 (configuration not stated)
Output line: > 10 µM (inactive)

Input line: Return reported GI50; argument: Cc1cccc(CP(Cc2cccc(C)c2)CC2(Cp3c4ccccc4c4ccccc43)COC2)c1
Output line: 3.96 µM (inactive)

Input line: Return reported GI50; argument: N/C(S)=N/N=C/c1ncccc1O
Output line: 3.47 µM (inactive)

---

System: MCF7
Assay: NCI tumour cell line growth inhibition, 48 h
Activity calls are given as the source filed them. No stated cut-off is given here; in the data, active = GI50 up to about 1.1 µM and inactive = higher.
Overview of reported GI50 across a group of molecules:

CCOC(=O)CCc1c(C)c2c(O)cc(O)cc2oc1=O ... > 100 µM (inactive)

Input line: Return reported GI50; argument: O=C1OC(CN2CCOCC2)CN1/N=C/c1ccc([N+](=O)[O-])o1 (stereo not given)
Output line: 46 µM (inactive)

Input line: Return reported GI50; argument: N#Cc1nc(-c2ccccn2)oc1N
Output line: > 100 µM (inactive)

Input line: Return reported GI50; argument: O=C1C=CC=C/C1=C1\N=C(c2ccccc2OCC(=O)c2ccccc2)SS1
Output line: > 100 µM (inactive)

---

Test system: SR
Assay: NCI tumour cell line growth inhibition, 48 h
Activity calls are given as the source filed them. Rule as the data show it: active = GI50 up to about 1.1 µM and inactive = higher.
Valid outcomes are listed here; reply with one: active, inactive

Solved entries (count: 5):
ClC1=C(Cl)C2OC3C=CCC3OC2C(Cl)=C1Cl (stereo unspecified) ... inactive
CCCCN/C(=N/C#N)NCc1ccccc1 ... inactive
O=C1c2ccccc2C(=O)N1C/C=N/NS(=O)(=O)c1ccc(Br)cc1 ... inactive
C#CCNC(CCCNC(=N)N)C(=O)O (stereo unspecified) ... inactive
COC(=O)C1C(C(=O)OC)C2(OC(c3ccc(Cl)cc3)=CC2=O)C12OC(c1ccc(Cl)cc1)=CC2=O (stereo unspecified) ... inactive

Next molecule, please.
Input line: What outcome does the record of this test show for CCN(CC)C(=S)N/N=C(/c1ccccc1)c1ccccn1 ?
Output line: active

---

Overview of reported GI50 across a group of compounds:
Tested on: TK-10
Experiment: NCI tumour cell line growth inhibition, 48 h
Active and inactive are the calls of the source. Rule as the data show it: active = GI50 up to about 1.1 µM and inactive = higher.

Solved cases (6 shown):
CCOC(=O)/C=C1/C(CCCOCc2ccccc2)C2CCCC23CC2(CCN13)OCCO2 (stereo unspecified) ... 36.2 µM (inactive)
Cc1cc(Cl)ccc1NC(=O)C(=O)Cc1nc2ccccc2o1 ... > 100 µM (inactive)
Cc1ccc(S(=O)(=O)N/N=C/C(C)C)cc1 ... > 100 µM (inactive)
[N-]=[N+]=NCN1C(=O)C2C3C=CC(C2C1=O)C1C2C(=O)N(CN=[N+]=[N-])C(=O)C2C31 (stereo unspecified) ... > 100 µM (inactive)
NC(=O)NC(=O)CCC(NS(=O)(=O)c1ccccc1)C(=O)NC(N)=O (stereo unspecified) ... > 100 µM (inactive)
Cc1ccccc1S(=O)(=O)OC1NS(=O)(=O)c2ccccc21 (stereo unspecified) ... > 100 µM (inactive)

Input line: Return reported GI50; argument: O/N=C/c1ccc(O)c(O)c1
Output line: > 100 µM (inactive)

Input line: Return reported GI50; argument: O=C(CC(=O)Nc1ccccc1O)Nc1ccccc1O
Output line: 53 µM (inactive)

Input line: Return reported GI50; argument: CN(C)/C=N\c1nc(=O)n(C2CCC(CO)O2)cc1F (stereo unspecified)
Output line: > 100 µM (inactive)

Input line: Return reported GI50; argument: N=C(N)N/N=C/c1c(-c2ccc(N)cc2)nc2sccn12
Output line: 20.9 µM (inactive)

Input line: Return reported GI50; argument: O=C(NCCNCCNCCNC(=O)c1cc(-c2ccccc2)nc2ccccc12)c1cc(-c2ccccc2)nc2ccccc12
Output line: 3.01 µM (inactive)
